# key: entry, value: IC50
target: recombinant CaMKIIδ (Homo sapiens (Human), UniProt Q13557); assay: CaMKIIδ biochemical assay (HTRF); conditions: 10 pM CaMKIIδ, 110 nM calmodulin, 12 μM ATP, 1 hour; read-out: CAMKIID-HTRF-384V2 (IC50 - nM)
The answer is to be given in nM; state only the numeric part.

Examples from the recorded data:
[[record]]
compound = "CCC(=O)Nc1cc(C(=O)NC[C@H](C)N(CC)CC)cc(-c2cnn3ccc(-c4cccs4)nc23)n1 [Example 188]"
target_or_system = "recombinant CaMKIIδ (Homo sapiens (Human), UniProt Q13557)"
test_value = 0.43

[[record]]
compound = "CCN(CC)[C@@H](C)CNC(=O)c1cc(-c2cnn3ccc(-c4cccs4)nc23)nc(N2CC(NS(=O)(=O)C(C)C)C2)c1 [Example 183]"
target_or_system = "recombinant CaMKIIδ (Homo sapiens (Human), UniProt Q13557)"
test_value = 0.26

[[record]]
compound = "N[C@@H]1CCC[C@H]2CCCN(C(=O)c3ccnc(-c4cnn5ccc(-c6ccccc6)nc45)c3)[C@H]21 [Example 98]"
target_or_system = "recombinant CaMKIIδ (Homo sapiens (Human), UniProt Q13557)"
test_value = 7.36

[[record]]
compound = "CCN(CC)[C@@H](C)CNC(=O)c1cc(-c2cnn3ccc(-c4cccs4)nc23)nc(N2CCC[C@@H]2C(F)(F)F)c1 [Example 251]"
target_or_system = "recombinant CaMKIIδ (Homo sapiens (Human), UniProt Q13557)"
test_value = 2.05

[[record]]
compound = "CCCNC(CC)CNC(=O)c1ccnc(-c2cnn3ccc(-c4ccccc4)nc23)c1 (stereo not shown) [Example 51]"
target_or_system = "recombinant CaMKIIδ (Homo sapiens (Human), UniProt Q13557)"
test_value = 9.61


Given item C[C@@H]1CNCCN1C(=O)c1ccnc(-c2cnn3ccc(-c4cccs4)nc23)c1 [Example 84] , the value recorded as its IC50 is 17.5

Given item CCCC(N)CNC(=O)c1ccnc(-c2cnn3ccc(-c4ccccc4)nc23)c1 (stereo not shown) [Example 48] , the value recorded as its IC50 is 25.7
